These measurements were taken from patent US10381110B2.

Molecular target: α1A (Alpha1A) (Homo sapiens, UniProt P35348)
Sequence (P35348 whole entry): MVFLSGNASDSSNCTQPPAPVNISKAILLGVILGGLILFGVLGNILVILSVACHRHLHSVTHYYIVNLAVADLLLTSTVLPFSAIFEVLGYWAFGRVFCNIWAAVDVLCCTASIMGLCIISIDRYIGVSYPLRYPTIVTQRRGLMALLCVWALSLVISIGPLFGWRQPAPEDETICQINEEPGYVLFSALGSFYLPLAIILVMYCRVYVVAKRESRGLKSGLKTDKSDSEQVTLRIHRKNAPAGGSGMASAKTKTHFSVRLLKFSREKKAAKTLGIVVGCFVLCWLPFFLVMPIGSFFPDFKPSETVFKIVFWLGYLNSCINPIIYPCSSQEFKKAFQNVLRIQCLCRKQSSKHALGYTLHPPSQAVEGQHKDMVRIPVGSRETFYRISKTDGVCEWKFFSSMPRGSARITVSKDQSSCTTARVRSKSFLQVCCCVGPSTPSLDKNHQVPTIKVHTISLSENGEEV
Assay: Secondary radioligand binding assay (Ki)
Conditions: read-out: Experimental Receptor Binding Data-Ki ALPHA_1A; Table 25, GPCR panel
pKi: −log10 of the molar value.
Quick reference for pKi among some molecules
observed property: pKi

                                   molecule  observed_property  test_value
0  COc1ccc2c(c1)CN(CCCN1CCN(c3ccccc3OC)CC1)C2=O                pKi        7.22
1  COc1cc2c(cc1OC)C(=O)N(CCCCN1CCN(c3ccccc3OC)CC1)C2                pKi        9.05
2  COc1ccc2c(c1)C(=O)N(CCN1CCN(c3ccccc3OC)CC1)C2                pKi        7.80
3  COc1ccc2c(c1)C(=O)N(CCCN1CCN(c3ccccc3OC)CC1)C2                pKi        7.19

----------
Biological target: dopamine D2 (Homo sapiens)
Test: Secondary radioligand binding assay (Ki)
Conditions: Table 22: Selectivity of Dopamine D2 over α1 Receptors; ratio of Ki
Where a name gives a salt, the structure may show the parent alone.
Listing of entries alongside the reported α1A/D2.
observed property: α1A/D2

                                   molecule                      target  test_value
0  COc1ccc2c(c1)C(=O)N(CCCN1CCN(c3ccccc3OC)CC1)C2 [GFR-VII-273]  dopamine D2 (Homo sapiens)       0.080
1  COc1ccc2c(c1)C(=O)N(CCN1CCN(c3ccccc3OC)CC1)C2 [GFR-VII-280-HCl]  dopamine D2 (Homo sapiens)       0.005
2  COc1cc2c(cc1OC)C(=O)N(CCCCN1CCN(c3ccccc3OC)CC1)C2 [GFR-VII-285]  dopamine D2 (Homo sapiens)       0.006
3  COc1ccc2c(c1)C(=O)N(CCN1CCN(c3ccccc3OC)CC1)C2 [GFR-VII-280]  dopamine D2 (Homo sapiens)       0.010
4  COc1ccc2c(c1)CN(CCCN1CCN(c3ccccc3OC)CC1)C2=O [GFR-VII-290]  dopamine D2 (Homo sapiens)       0.044

----------
Biological target: dopamine D2 (Homo sapiens, UniProt P14416)
Sequence (P14416 whole entry, species assumed): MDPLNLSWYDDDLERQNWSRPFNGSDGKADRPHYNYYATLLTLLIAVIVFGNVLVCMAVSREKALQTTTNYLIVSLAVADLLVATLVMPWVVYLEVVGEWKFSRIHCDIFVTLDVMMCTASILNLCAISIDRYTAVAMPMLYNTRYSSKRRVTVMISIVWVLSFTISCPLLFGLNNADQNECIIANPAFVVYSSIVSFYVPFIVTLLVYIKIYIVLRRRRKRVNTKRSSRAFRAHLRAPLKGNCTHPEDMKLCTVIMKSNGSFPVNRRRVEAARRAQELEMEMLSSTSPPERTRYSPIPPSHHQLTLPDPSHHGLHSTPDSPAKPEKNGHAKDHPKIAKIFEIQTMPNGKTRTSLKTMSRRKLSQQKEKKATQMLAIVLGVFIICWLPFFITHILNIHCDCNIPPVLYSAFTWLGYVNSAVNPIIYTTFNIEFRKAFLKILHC
Assay: Primary radioligand binding assay (NIMH PDSP)
Conditions: primary radiobinding assay, [3H]N-methylspiperone
observed property: D2 (% inh)

In [3]: df
Out[3]:
                                   compound  observed_property  result_units  test_value
0  CC1Cc2ccccc2N1C(=O)CN1CCN(c2ccccc2)CC1 (stereo not shown) [STT-00185641]         D2 (% inh)         % inh           2
1  COc1ccc2c(c1)C(=O)N(CCN1CCN(c3ccccc3OC)CC1)C2 [GFR-VII-280]         D2 (% inh)         % inh        66.6
2  COc1ccc2c(c1)C(=O)N(CCCN1CCN(c3ccccc3OC)CC1)C2 [GFR-VII-273]         D2 (% inh)         % inh          85
3  COc1cc2c(cc1OC)C(=O)N(CCCCN1CCN(c3ccccc3OC)CC1)C2 [GFR-VII-285]         D2 (% inh)         % inh        96.2
